Molecular target: EBI2 (Homo sapiens, UniProt P32249)
Sequence (P32249 whole entry): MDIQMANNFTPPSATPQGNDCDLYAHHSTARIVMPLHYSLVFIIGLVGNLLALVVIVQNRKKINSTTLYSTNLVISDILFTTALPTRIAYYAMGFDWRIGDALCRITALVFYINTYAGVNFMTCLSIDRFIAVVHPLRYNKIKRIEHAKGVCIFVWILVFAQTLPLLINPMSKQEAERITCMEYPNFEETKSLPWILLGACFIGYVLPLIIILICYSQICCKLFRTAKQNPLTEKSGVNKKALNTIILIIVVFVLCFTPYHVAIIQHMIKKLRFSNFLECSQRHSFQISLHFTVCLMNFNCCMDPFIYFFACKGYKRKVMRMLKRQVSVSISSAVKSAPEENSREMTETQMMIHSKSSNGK
Assay: Cell-based luminescent assay of EBI2 modulation (7a,25-OHC stimulated)
Conditions: 7a,25-OHC final assay concentration 80 nM, 60 minute incubation
pIC50: −log10 of the molar value.
A collection of compounds and their measured pIC50

compound | pIC50
O=C(c1ccc(Cl)cc1)N1CCC2(CC1)CN(C(=O)c1cc3ccc(Br)cc3[nH]1)C2 [Compound C59] | 5.30 to 6.30
O=C(/C=C/c1ccc(Cl)c(Cl)c1)N1CC2(CCN(C(=O)c3ccc(F)cc3)CC2)C1 [Compound C28] | > 7.00
O=C(c1ccc(C(F)(F)F)cc1)N1CCC2(CC1)CN(C(=O)c1cc3cc(Cl)ccc3[nH]1)C2 [Compound C39] | > 7.00
O=C(C#Cc1ccc(F)cc1)N1CC2(CCN(C(=O)c3ccc(C(F)(F)F)cc3)CC2)C1 [Compound C96] | > 7.00
N#Cc1ccc(C(=O)N2CCC3(CC2)CN(C(=O)/C=C/c2ccc(Br)cc2)C3)cc1F [Compound C43] | > 7.00

Form field pIC50, entry O=C(C#Cc1ccc(F)cc1)N1CCC2(CC1)CN(C(=O)c1ccc(F)cc1)C2 [Compound C86] : 6.30 to 7.00

Form field pIC50, entry O=C(C#Cc1ccc(Cl)cc1)N1CC2(CCN(Cc3ccc(F)cc3)CC2)C1 [Compound C81] : 6.30 to 7.00

Form field pIC50, entry O=C(C#Cc1ccc(Br)cc1)N1CCC2(CC1)CN(C(=O)c1ccc(Cl)cc1)C2 [Compound C70] : 6.30 to 7.00

###

Biological target: UniProt P32249
Assay: Cell-based luminescent assay of EBI2 modulation (7a,25-OHC stimulated)
Conditions: 7a,25-OHC final assay concentration 80 nM, 60 minute incubation
observed property: IC50

compound | observed property | endpoint value
O=C(c1ccc(F)cc1)N1CCC2(CC1)CN(C(=O)c1cc3ccc(Br)cc3[nH]1)C2 [Compound C57] | IC50 | 500 to 5000 nM
O=C(/C=C/c1ccc(Br)cc1)N1CC2(CCN(C(=O)c3cc(F)cc(F)c3)CC2)C1 [Compound C44] | IC50 | < 100 nM
O=C(C#Cc1ccc(F)cc1)N1CCC2(CC1)CN(C(=O)c1ccc(Cl)cc1)C2 [Compound C87] | IC50 | < 100 nM

Moving on to the next compound.
Form field IC50, entry O=C(c1ccc(-c2nnn[nH]2)cc1)N1CC2(CCN(C(=O)c3cc4cc(Cl)ccc4[nH]3)CC2)C1 [Compound C16] : 500 to 5000 nM

###

Biological target: UniProtKB P32249
Test: Cell-based luminescent assay of EBI2 modulation (7a,25-OHC stimulated)
Settings: 7a,25-OHC final assay concentration 80 nM, 60 minute incubation
pIC50: −log10 of the molar value.
observed property: pIC50

compound structure string | pIC50
O=C(c1ccc(-c2nnn[nH]2)cc1)N1CCC2(CC1)CN(C(=O)c1cc3cc(Cl)ccc3[nH]1)C2 | 5.30 to 6.30
O=C(/C=C/c1ccc(Br)cc1)N1CC2(CCN(C(=O)c3ccc(Cl)cc3)CC2)C1 | > 7.00
O=C(c1cc2cc(Cl)ccc2[nH]1)N1CCC2(CC1)CN(Cc1ccc(C(F)(F)F)cc1)C2 | 6.30 to 7.00

# value of pIC50, UniProtKB P32249, item "O=C(c1cc2cc(Cl)ccc2[nH]1)N1CCC2(CC1)CN(Cc1ccc(F)cc1)C2" = > 7.00

# value of pIC50, UniProtKB P32249, item "O=C(C#Cc1ccc(Br)cc1)N1CCC2(CC1)CN(C(=O)c1ccc(F)cc1)C2" = 5.30 to 6.30

###

Biological target: EBI2 (Homo sapiens, UniProt P32249)
Experiment: Cell-based luminescent assay of EBI2 modulation (7a,25-OHC stimulated)
Settings: 7a,25-OHC final assay concentration 80 nM, 60 minute incubation
observed property: IC50

# example entries with known answers
compound structure string | endpoint value
O=C(C#Cc1ccc2c(c1)OCO2)N1CCC2(CC1)CN(C(=O)c1ccc(Cl)cc1)C2 | 100 to 500 nM
O=C(C#Cc1ccc(F)cc1)N1CCC2(CC1)CN(Cc1ccc(F)cc1C(F)(F)F)C2 | 100 to 500 nM

Form field IC50, entry "COc1ccc(C(=O)N2CCC3(CC2)CN(C(=O)C#Cc2ccc(Cl)cc2)C3)cc1" : < 100 nM

Form field IC50, entry "O=C(/C=C/c1ccc(Cl)c(Cl)c1)N1CC2(CCN(Cc3ccc(C(F)(F)F)c(F)c3)CC2)C1" : 100 to 500 nM

Form field IC50, entry "O=C(/C=C/c1ccc(Cl)c(Cl)c1)N1CC2(CCN(C(=O)c3ccc(Cl)cc3)CC2)C1" : < 100 nM

###

Molecular target: EBI2 (Homo sapiens)
Assay: Cell-based luminescent assay of EBI2 modulation (7a,25-OHC stimulated)
Settings: 7a,25-OHC final assay concentration 80 nM, 60 minute incubation
pIC50: −log10 of the molar value.
A collection of molecules and their measured pIC50

compound structure string | observed property | endpoint value
O=C(C#Cc1ccc(F)cc1)N1CC2(CCN(C(=O)c3ccc(Br)cc3)CC2)C1 | pIC50 | > 7.00

Form field pIC50, entry "O=C(C#Cc1ccc(Br)cc1)N1CC2(CCN(C(=O)c3ccc(Cl)cc3)CC2)C1" : 6.30 to 7.00

###

Molecular target: EBI2 (Homo sapiens)
Experiment: Cell-based luminescent assay of EBI2 modulation (7a,25-OHC stimulated)
Conditions: 7a,25-OHC final assay concentration 80 nM, 60 minute incubation
A collection of molecules and their measured IC50

compound structure string | IC50
O=C(C#Cc1ccc(F)cc1)N1CC2(CCN(C(=O)c3ccc(Cl)cc3)CC2)C1 | 100 to 500 nM
O=C(/C=C/c1ccc(Br)cc1)N1CCC2(CC1)CN(Cc1ccc(F)cc1)C2 | < 100 nM
O=C(c1cc2cc(Br)ccc2[nH]1)N1CC2(CCN(Cc3ccc(F)cc3C(F)(F)F)CC2)C1 | 500 to 5000 nM
O=C(c1cc2cc(Cl)ccc2[nH]1)N1CCC2(CC1)CN(Cc1ccc(C(F)(F)F)c(F)c1)C2 | 100 to 500 nM
O=C(/C=C/c1ccc(Br)cc1)N1CC2(CCN(Cc3ccc(F)cc3)CC2)C1 | 100 to 500 nM

Form field IC50, entry "O=C(/C=C/c1ccc(Br)cc1)N1CC2(CCN(C(=O)c3ccc(F)cc3)CC2)C1" : < 100 nM

Form field IC50, entry "O=C(C#Cc1ccc(Br)cc1)N1CCC2(CC1)CN(Cc1ccc(Br)cc1)C2" : < 100 nM

Form field IC50, entry "O=C(C#Cc1ccc(Br)cc1)N1CCC2(CC1)CN(Cc1ccc(C(F)(F)F)cc1)C2" : < 100 nM

###

Biological target: EBI2 (Homo sapiens, UniProt P32249)
Experiment: Cell-based luminescent assay of EBI2 modulation (7a,25-OHC stimulated)
Details: 7a,25-OHC final assay concentration 80 nM, 60 minute incubation
observed property: IC50

# example entries with known answers
molecule | observed property | endpoint value
O=C(/C=C/c1ccc(Br)cc1)N1CCC2(CC1)CN(C(=O)c1cc(Cl)cc(Cl)c1)C2 [Compound C10] | IC50 | < 100 nM
O=C(c1cc2cc(Br)ccc2[nH]1)N1CC2(CCN(Cc3ccc(C(F)(F)F)cc3)CC2)C1 [Compound C50] | IC50 | 500 to 5000 nM
O=C(C#Cc1ccc(Cl)cc1)N1CC2(CCN(Cc3ccc(Cl)cc3)CC2)C1 [Compound C85] | IC50 | 100 to 500 nM

Form field IC50, entry COc1ccc(CN2CC3(CCN(C(=O)C#Cc4ccc(Br)cc4)CC3)C2)cc1 [Compound C75] : 100 to 500 nM

###

Biological target: EBI2 (Homo sapiens, UniProt P32249)
Test: Cell-based luminescent assay of EBI2 modulation (7a,25-OHC stimulated)
Conditions: 7a,25-OHC final assay concentration 80 nM, 60 minute incubation
A collection of compounds and their measured IC50

Form field IC50, entry "O=C(/C=C/c1ccc(Br)cc1)N1CCC2(CC1)CN(C(=O)/C=C/c1ccc(Br)cc1)C2" : < 100 nM

Form field IC50, entry "Nc1ccc(C(=O)N2CCC3(CC2)CN(C(=O)/C=C/c2ccc(Br)cc2)C3)cc1" : < 100 nM

Form field IC50, entry "O=C(C#Cc1ccc(Br)cc1)N1CCC2(CC1)CN(Cc1ccc(Cl)cc1)C2" : < 100 nM

Form field IC50, entry "COc1cc(CN2CCC3(CC2)CN(C(=O)c2cc4cc(Br)ccc4[nH]2)C3)cc(OC)c1" : 100 to 500 nM

Form field IC50, entry "O=C(c1ccc(F)cc1)N1CCC2(CC1)CN(C(=O)c1cc3ccc(Cl)cc3[nH]1)C2" : 500 to 5000 nM

Form field IC50, entry "O=C(c1ccc(C(F)(F)F)c(F)c1)N1CCC2(CC1)CCN(C(=O)c1cc3cc(Cl)ccc3[nH]1)CC2" : < 100 nM

Form field IC50, entry "O=C(c1cc2cc(Cl)ccc2[nH]1)N1CCC2(CC1)CN(Cc1cccc(F)c1)C2" : < 100 nM

Form field IC50, entry "O=C(C#Cc1ccc(Br)cc1)N1CCC2(CC1)CN(C(=O)c1ccc(C(F)(F)F)cc1)C2" : < 100 nM
